# key: entry, value: relative viability
# Tested on: PC-3 [JPC-3]
# test summary: relative viability (nuclei count vs DMSO), 5 days (fraction); higher = more cells survive
# condition summary: first compound 2.53 µM
Just the number, please, no unit after it.

• Cc1cnc(-c2cnc(NCCNc3ccc(C#N)cn3)nc2-c2ccc(Cl)cc2Cl)[nH]1 + CCNC(=O)c1noc(-c2cc(C(C)C)c(O)cc2O)c1-c1ccc(CN2CCOCC2)cc1 [Luminespib] (partner 0.01 µM) = 0.661
• O=c1[nH]c2ccccc2n1C1CCN(CCCC(c2ccc(F)cc2)c2ccc(F)cc2)CC1 [Pimozide] + O=C(c1cc(Cc2n[nH]c(=O)c3ccccc23)ccc1F)N1CCN(C(=O)C2CC2)CC1 [Olaparib] (partner 8 µM) = 1.08

Switching to the query record.
Request: Query: relative viability; subject: Cc1cnc(-c2cnc(NCCNc3ccc(C#N)cn3)nc2-c2ccc(Cl)cc2Cl)[nH]1 + Cc1nc(NC(=O)N2CCC[C@H]2C(N)=O)sc1-c1ccnc(C(C)(C)C(F)(F)F)c1 [Alpelisib] (partner 2 µM)
Response: 1.01
